TARGET_DESC: human CK2 holoenzyme (Homo sapiens)
Sequence (P68400 whole entry): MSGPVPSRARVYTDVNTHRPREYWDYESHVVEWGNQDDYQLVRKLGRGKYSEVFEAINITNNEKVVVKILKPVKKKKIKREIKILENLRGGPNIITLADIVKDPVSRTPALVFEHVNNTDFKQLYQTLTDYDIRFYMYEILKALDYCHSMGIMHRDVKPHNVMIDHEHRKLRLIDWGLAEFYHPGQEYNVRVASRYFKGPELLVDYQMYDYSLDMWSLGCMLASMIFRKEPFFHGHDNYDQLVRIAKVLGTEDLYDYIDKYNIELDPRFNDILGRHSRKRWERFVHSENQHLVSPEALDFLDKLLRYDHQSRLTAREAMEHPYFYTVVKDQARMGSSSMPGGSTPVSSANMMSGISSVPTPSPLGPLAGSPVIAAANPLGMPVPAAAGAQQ
Sequence (P67870 whole entry partner): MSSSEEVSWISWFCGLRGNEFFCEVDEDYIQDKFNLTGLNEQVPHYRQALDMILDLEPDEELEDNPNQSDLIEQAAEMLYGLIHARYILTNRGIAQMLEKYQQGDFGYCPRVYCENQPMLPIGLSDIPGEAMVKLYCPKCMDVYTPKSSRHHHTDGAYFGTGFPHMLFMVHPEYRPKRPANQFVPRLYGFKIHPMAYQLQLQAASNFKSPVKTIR
RUN_DESCRIPTION: biochemical
pIC50: −log10 of the molar value.
Would you kindly list pIC50 for each of these compounds?

COc1cccc(CCn2c3c(c4c(O)cccc42)C(=O)c2ccccc2-3)c1	~4.94
O=C1c2ccccc2-c2c1c1c(O)cccc1n2CCCc1ccccc1	~4.70

Read the next record carefully.
Q: What does the data say about its pIC50? Entry: "COc1ccc(CCn2c3c(c4c(O)cccc42)C(=O)c2ccccc2-3)cc1"
A: ~4.85
